Assay: Serum pharmacokinetics, stratum A
Assay type: in vivo, human
Settings: human, serum, oral, 220 mg/m2, Half-life, stratum A, 220 mg/m^2, D28, median (range)
OBSERVATION TYPE: half-life (h)

                                   molecule  observation_type  endpoint_value
0  CC1(COc2ccc3c(c2)ncn3-c2ccc3cccc(N4CCC(N)CC4)c3n2)COC1 [crenolanib]         half-life             5.5

* * *

Assay: Serum pharmacokinetics, stratum A
Type: in vivo, human
Details: human, serum, oral, 100 mg/m2, Half-life, stratum A2 (crushed tablets), 100 mg/m^2, D28, median (range)
OBSERVATION TYPE: half-life (h)

>>> df
                                item_smiles  endpoint_value
0  CC1(COc2ccc3c(c2)ncn3-c2ccc3cccc(N4CCC(N)CC4)c3n2)COC1             5.1
